# viability, T/C listing for each entry below
- System: 324938-238-R-J1-PDC complex spheroid growth, % test/control;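 further: spheroids exposed to agents for seven days before viability read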
- measurement.protocol: Anticancer human tumor 324938-238-R-J1-PDC patient-derived bladder carcinoma cell line growth inhibition [AhR]
- condition.summary: second compound 10 µM; first compound 10 µM; stronger effect = lower value
measurement.type: viability, T/C (%)

compound	measurement.type	assay.result
Nc1ccccc1NC(=O)c1ccc(CNC(=O)OCc2cccnc2)cc1 + Cc1ccccc1N=Nc1ccc(NC(=O)c2ccnn2C)c(C)c1	viability, T/C	40.5
CC(C)c1c(-c2ccccc2)nc2c(C#N)c[nH]n2c1=O + Cc1cncc(-c2nc(NCCc3c[nH]c4ccccc34)c3ncn(C(C)C)c3n2)c1	viability, T/C	1.68
O=C(c1cc(Cc2n[nH]c(=O)c3ccccc23)ccc1F)N1CCN(C(=O)C2CC2)CC1 + Cc1cncc(-c2nc(NCCc3c[nH]c4ccccc34)c3ncn(C(C)C)c3n2)c1	viability, T/C	8.77
O=C(c1cc(Cc2n[nH]c(=O)c3ccccc23)ccc1F)N1CCN(C(=O)C2CC2)CC1 + Cc1ccccc1N=Nc1ccc(NC(=O)c2ccnn2C)c(C)c1	viability, T/C	65.9
Nc1ccccc1NC(=O)c1ccc(CNC(=O)OCc2cccnc2)cc1 + CC(CO)NC(=O)c1cc(-c2ccc(Cl)cc2)nn(-c2cnn(C)c2)c1=O	viability, T/C	1.83
NS(=O)(=O)OCC1CC(n2ccc3c(NC4CCc5ccccc54)ncnc32)CC1O (stereo unspecified) + Cc1ccccc1N=Nc1ccc(NC(=O)c2ccnn2C)c(C)c1	viability, T/C	35.8
